- Target System: T1, orthogonal hCD122 receptor (hoRb), hCD122 with H133D and Y134F (human, UniProt P14784 27-550)
- T1 sequence: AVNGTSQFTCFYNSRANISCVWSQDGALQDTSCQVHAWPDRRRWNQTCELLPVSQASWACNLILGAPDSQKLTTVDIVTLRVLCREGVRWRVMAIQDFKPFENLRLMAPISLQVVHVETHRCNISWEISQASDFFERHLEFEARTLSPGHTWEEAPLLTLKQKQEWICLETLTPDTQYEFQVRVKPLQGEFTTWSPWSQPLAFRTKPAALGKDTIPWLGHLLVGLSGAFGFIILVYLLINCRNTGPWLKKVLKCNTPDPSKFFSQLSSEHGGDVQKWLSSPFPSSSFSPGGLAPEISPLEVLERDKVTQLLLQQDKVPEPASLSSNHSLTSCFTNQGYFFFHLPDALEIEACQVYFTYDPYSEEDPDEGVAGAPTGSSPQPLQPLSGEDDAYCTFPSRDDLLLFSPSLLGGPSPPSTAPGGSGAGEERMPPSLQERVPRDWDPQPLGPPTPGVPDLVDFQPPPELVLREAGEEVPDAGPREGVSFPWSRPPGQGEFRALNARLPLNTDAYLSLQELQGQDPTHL
- Assay Notes: cell-based or functional assay
Parameter: 3F8 Ortho Proliferation Signal 1:10 (cts/min)

Example cases with answers are listed next.
binder="L14W, SQVLKA (ligand) APTSSSTKKTQLQWSQLLVLLKAILNGINNYKNPKLTRMLTFKFYMPKKATELKHLQCLEEELKPLEEVLNLAQSKNFHLRPRDLISNINVIVLELKGSETTFMCEYADETATIVEFLNRWITFCQSIISTLT" parameter="3F8 Ortho Proliferation Signal 1:10" obs_value=36000
binder="T3R, SQVLKA (ligand) APRSSSTKKTQLQLSQLLVLLKAILNGINNYKNPKLTRMLTFKFYMPKKATELKHLQCLEEELKPLEEVLNLAQSKNFHLRPRDLISNINVIVLELKGSETTFMCEYADETATIVEFLNRWITFCQSIISTLT" parameter="3F8 Ortho Proliferation Signal 1:10" obs_value=16800

(I) L18F, SQVLKA (ligand) APTSSSTKKTQLQLSQLFVLLKAILNGINNYKNPKLTRMLTFKFYMPKKATELKHLQCLEEELKPLEEVLNLAQSKNFHLRPRDLISNINVIVLELKGSETTFMCEYADETATIVEFLNRWITFCQSIISTLT
(II) Q126D, SQVLKA (ligand) APTSSSTKKTQLQLSQLLVLLKAILNGINNYKNPKLTRMLTFKFYMPKKATELKHLQCLEEELKPLEEVLNLAQSKNFHLRPRDLISNINVIVLELKGSETTFMCEYADETATIVEFLNRWITFCDSIISTLT
# input // compare: I vs II , metric 3F8 Ortho Proliferation Signal 1:10, want the smaller # answer = label of selected item
# output II

(1) L18M, SQVLKA (ligand) APTSSSTKKTQLQLSQLMVLLKAILNGINNYKNPKLTRMLTFKFYMPKKATELKHLQCLEEELKPLEEVLNLAQSKNFHLRPRDLISNINVIVLELKGSETTFMCEYADETATIVEFLNRWITFCQSIISTLT
(2) SQVLVA (ligand) APTSSSTKKTQLQLSQLLVLLVAILNGINNYKNPKLTRMLTFKFYMPKKATELKHLQCLEEELKPLEEVLNLAQSKNFHLRPRDLISNINVIVLELKGSETTFMCEYADETATIVEFLNRWITFCQSIISTLT
# input Two entries are listed, 1 and 2 . Which one carries the higher 3F8 Ortho Proliferation Signal 1:10? # answer = label of selected item
# output 1
